# glycan array binding signal (z-score) listing for each entry below
assayed.target: Gal(a1-4)Gal(b1-4)GlcNAc
measurement.description: glycan array binding signal (z-score within array); higher = stronger binding
experimental.context: glycan notation: IUPAC condensed, linker removed
This excerpt belongs to a sample that is enriched for the strongest signals.
Reply briefly: the number, and no unit.

Look over these answered cases.
binder	glycan array binding signal (z-score)
Mindin (Homo sapiens), Q9BUD6 (protein) MENPSPAAALGKALCALLLATLGAAGQPLGGESICSARALAKYSITFTGKWSQTAFPKQYPLFRPPAQWSSLLGAAHSSDYSMWRKNQYVSNGLRDFAERGEAWALMKEIEAAGEALQSVHEVFSAPAVPSGTGQTSAELEVQRRHSLVSFVVRIVPSPDWFVGVDSLDLCDGDRWREQAALDLYPYDAGTDSGFTFSSPNFATIPQDTVTEITSSSPSHPANSFYYPRLKALPPIARVTLVRLRQSPRAFIPPAPVLPSRDNEIVDSASVPETPLDCEVSLWSSWGLCGGHCGRLGTKSRTRYVRVQPANNGSPCPELEEEAECVPDNCV	-0.141
CGL (Crenomytilus grayanus), H2FH31 (protein) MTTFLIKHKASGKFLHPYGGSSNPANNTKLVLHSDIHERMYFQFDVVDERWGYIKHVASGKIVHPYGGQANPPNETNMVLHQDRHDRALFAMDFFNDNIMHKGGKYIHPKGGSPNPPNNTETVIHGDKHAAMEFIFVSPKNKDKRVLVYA	3.63

Look up and state reported glycan array binding signal (z-score) for PpFlo3 (Pichia pastoris) (protein) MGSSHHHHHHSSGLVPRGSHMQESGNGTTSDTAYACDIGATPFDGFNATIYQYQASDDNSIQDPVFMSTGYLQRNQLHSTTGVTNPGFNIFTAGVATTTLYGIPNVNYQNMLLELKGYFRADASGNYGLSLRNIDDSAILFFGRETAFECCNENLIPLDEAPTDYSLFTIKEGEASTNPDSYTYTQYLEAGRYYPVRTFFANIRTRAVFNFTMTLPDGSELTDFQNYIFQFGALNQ
-0.139
